Target: HiBit-WIZ fusion protein (Homo sapiens, UniProt O95785+Q96SW2)
Sequence (O95785 whole entry, the tested form may be a part): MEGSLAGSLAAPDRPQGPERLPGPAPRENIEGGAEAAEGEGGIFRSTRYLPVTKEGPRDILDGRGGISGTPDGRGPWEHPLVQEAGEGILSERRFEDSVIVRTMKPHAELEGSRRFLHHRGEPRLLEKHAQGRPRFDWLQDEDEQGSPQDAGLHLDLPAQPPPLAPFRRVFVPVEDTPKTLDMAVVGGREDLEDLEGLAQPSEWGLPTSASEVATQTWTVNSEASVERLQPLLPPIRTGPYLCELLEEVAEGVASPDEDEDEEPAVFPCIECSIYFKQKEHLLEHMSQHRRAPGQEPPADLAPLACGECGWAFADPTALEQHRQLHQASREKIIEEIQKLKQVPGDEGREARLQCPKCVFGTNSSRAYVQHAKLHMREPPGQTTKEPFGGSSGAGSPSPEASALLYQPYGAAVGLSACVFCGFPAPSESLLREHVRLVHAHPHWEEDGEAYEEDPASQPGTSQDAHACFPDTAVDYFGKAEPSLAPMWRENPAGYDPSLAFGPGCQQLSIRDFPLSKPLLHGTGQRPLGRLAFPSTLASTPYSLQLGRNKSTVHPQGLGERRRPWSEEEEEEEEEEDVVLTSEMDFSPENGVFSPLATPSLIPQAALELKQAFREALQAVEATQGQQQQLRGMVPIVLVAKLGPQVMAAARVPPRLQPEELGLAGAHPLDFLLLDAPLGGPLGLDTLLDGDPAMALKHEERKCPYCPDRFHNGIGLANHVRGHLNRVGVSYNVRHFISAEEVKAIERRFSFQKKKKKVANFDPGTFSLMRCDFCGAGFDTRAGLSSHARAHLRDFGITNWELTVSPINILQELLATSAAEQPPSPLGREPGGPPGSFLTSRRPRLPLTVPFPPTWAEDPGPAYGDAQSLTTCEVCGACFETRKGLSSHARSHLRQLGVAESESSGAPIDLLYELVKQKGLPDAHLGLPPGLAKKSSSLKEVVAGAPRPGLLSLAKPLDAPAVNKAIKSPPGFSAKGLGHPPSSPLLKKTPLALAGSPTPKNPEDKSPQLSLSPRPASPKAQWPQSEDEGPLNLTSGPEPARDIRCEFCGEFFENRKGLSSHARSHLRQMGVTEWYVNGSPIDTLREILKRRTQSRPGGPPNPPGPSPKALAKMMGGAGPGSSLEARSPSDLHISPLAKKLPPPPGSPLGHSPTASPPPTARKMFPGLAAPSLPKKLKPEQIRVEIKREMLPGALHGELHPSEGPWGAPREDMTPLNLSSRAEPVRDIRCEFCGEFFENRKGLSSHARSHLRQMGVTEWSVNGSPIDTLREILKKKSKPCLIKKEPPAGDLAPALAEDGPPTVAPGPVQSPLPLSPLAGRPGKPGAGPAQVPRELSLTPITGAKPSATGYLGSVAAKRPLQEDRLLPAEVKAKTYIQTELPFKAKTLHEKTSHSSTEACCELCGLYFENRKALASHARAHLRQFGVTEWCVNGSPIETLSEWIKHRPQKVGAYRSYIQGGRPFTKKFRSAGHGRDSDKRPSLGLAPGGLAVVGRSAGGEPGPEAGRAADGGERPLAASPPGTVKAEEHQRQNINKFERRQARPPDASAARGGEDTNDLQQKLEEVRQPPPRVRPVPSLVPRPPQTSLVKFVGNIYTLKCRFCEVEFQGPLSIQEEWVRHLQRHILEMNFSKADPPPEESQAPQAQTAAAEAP
Sequence (Q96SW2 whole entry, the tested form may be a part): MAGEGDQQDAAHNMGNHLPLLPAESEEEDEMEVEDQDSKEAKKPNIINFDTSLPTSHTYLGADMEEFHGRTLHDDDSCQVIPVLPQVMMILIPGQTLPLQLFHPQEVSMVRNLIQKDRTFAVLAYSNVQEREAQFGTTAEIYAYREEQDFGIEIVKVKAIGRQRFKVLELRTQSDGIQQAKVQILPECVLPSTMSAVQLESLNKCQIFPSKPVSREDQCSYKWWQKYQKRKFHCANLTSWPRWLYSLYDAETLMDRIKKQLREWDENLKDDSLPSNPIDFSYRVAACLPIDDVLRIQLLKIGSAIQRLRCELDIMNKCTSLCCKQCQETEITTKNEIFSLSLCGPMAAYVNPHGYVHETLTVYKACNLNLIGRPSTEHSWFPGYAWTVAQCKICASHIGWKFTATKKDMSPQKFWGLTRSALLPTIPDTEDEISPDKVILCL
Sequence (Q16531 whole entry partner, the tested form may be a part): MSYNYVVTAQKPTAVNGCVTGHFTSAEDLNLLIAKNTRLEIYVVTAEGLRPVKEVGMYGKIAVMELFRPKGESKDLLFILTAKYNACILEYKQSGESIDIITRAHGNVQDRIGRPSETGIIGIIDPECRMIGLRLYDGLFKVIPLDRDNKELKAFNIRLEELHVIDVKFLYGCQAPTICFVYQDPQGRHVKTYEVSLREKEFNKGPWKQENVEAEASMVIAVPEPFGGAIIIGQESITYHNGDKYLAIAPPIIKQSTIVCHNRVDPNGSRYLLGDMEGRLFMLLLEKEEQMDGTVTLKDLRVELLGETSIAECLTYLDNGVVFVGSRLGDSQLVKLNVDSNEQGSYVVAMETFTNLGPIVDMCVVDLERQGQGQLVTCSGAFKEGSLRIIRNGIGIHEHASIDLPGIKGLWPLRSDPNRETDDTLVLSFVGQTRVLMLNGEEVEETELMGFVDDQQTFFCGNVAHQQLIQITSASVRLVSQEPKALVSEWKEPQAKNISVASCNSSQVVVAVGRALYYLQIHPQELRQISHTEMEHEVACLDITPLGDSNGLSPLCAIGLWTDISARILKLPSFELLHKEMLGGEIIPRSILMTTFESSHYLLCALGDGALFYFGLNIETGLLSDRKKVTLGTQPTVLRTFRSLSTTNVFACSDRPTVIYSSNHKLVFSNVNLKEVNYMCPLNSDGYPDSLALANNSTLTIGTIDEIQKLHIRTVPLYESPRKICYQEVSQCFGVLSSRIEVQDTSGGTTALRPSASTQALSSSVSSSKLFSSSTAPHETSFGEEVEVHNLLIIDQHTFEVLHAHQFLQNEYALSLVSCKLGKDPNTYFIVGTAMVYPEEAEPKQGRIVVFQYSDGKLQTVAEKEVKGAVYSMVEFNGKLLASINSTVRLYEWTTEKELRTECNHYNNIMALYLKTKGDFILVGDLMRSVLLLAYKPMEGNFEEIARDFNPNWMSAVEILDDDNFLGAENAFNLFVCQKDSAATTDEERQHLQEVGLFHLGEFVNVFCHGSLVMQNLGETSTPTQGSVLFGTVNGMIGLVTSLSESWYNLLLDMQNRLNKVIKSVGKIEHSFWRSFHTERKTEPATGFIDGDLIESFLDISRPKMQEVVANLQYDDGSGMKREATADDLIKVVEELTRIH
Test: Quantification of WIZ protein levels in HiBit tag fusion protein assay (WIZ HiBit assay in 293T cells)
Assay type: cell-based
Design: dose or concentration left out as unconfirmed
Settings: HEK-293T, 100 minus Amax; 293T cells; read-out: % degradation of WIZ (100-Amax)
Consider the following partition of reported Dmax into named classes: bottom end = under 20%, midrange = from 20% up to 50%, top end = 50% and over

Input: Which category fits this record: Cc1n[nH]c(CC(=O)N2CCCC[C@H]2COc2ccc3c(c2)CN(C2CCC(=O)NC2=O)C3=O)n1 (stereo partly shown) [Compound I-72cg]
Output: bottom end

Input: Another compound: CC(Oc1ccccc1Cl)C(=O)N1CCCC[C@H]1COc1ccc2c(c1)CN(C1CCC(=O)NC1=O)C2=O (stereo partly shown) [Compound I-72ag]
Output: bottom end

Input: Can you check Cn1cncc1CN1CCCC[C@@H]1COc1ccc2c(c1)CN(C1CCC(=O)NC1=O)C2=O (stereo partly shown) [Compound I-50df] next?
Output: top end

Input: And what about the compound CCc1cncc(C(=O)N2CCCC[C@H]2COc2ccc3c(c2)CN(C2CCC(=O)NC2=O)C3=O)c1 (stereo partly shown) [Compound I-72ay] ?
Output: bottom end

Input: Can you check O=C1CCC(N2Cc3cc(OC[C@@H]4CCCCN4C(=O)c4ccc(-c5ccc(F)cc5)cn4)ccc3C2=O)C(=O)N1 (stereo partly shown) [Compound I-72fj] next?
Output: top end

Input: Cool, now CCn1cc(C(=O)N2CCCC[C@H]2COc2ccc3c(c2)CN(C2CCC(=O)NC2=O)C3=O)c(C)n1 (stereo partly shown) [Compound I-72gw]
Output: bottom end

Input: Let us now turn to N#CC1(c2cc(C(=O)N3CCCC[C@H]3COc3ccc4c(c3)CN(C3CCC(=O)NC3=O)C4=O)ccn2)CC1 (stereo partly shown) [Compound I-72y]
Output: bottom end

Input: # repeat for O=C1CCC(N2Cc3cc(OC[C@@H]4CCCCN4Cc4c[nH]cn4)ccc3C2=O)C(=O)N1 (stereo partly shown) [Compound I-50al]
Output: top end

Input: Same question for O=C1CCC(N2Cc3cc(OC[C@H]4CCCCN4Cc4ccc(C5CCN(CCF)CC5)cc4)ccc3C2=O)C(=O)N1 (stereo partly shown) please.
Output: top end

Input: Would you mind doing O=C1CCC(N2Cc3cc(OC[C@H]4CCCCN4Cc4ccccc4Cn4cncn4)ccc3C2=O)C(=O)N1 (stereo partly shown) [Compound I-50dd] as well?
Output: midrange

Input: Also Cc1nnc(-c2ccc(C(=O)N3CCCC[C@H]3COc3ccc4c(c3)CN(C3CCC(=O)NC3=O)C4=O)cc2)o1 (stereo partly shown) [Compound I-72gy] , if possible.
Output: midrange

Input: Param item: COc1ccc(C(C)(C)C(=O)N2CCCC[C@H]2COc2ccc3c(c2)CN(C2CCC(=O)NC2=O)C3=O)cc1 (stereo partly shown) [Compound I-72fz]
Output: bottom end

Input: Thanks! And O=C1CCC(N2Cc3cc(OC[C@H]4CCCCN4CC4CCOC4)ccc3C2=O)C(=O)N1 (single isomer, unassigned) ?
Output: top end

Input: Another compound: O=C1CCC(N2Cc3cc(OC[C@@H]4CCCCN4Cc4ccc[nH]c4=O)ccc3C2=O)C(=O)N1 (stereo partly shown) [Compound I-50k]
Output: midrange

Input: Moving on to O=C1CCC(N2Cc3cc(OC[C@H]4CCCCN4CC4CC4)ccc3C2=O)C(=O)N1 (stereo partly shown)
Output: top end

Input: # iterate: O=C1CCC(N2Cc3cc(OC[C@@H]4CCCCN4C(=O)c4cccc(Cn5cncn5)c4)ccc3C2=O)C(=O)N1 (stereo partly shown) [Compound I-72bi]
Output: bottom end

Input: Next up: O=C1CCC(N2Cc3cc(OC[C@@H]4CCCCN4Cc4c(F)cccc4Cl)ccc3C2=O)C(=O)N1 (stereo partly shown) [Compound I-50n]
Output: top end

Input: Request: C[C@H]1CC[C@H](CC(=O)N2CCCC[C@H]2COc2ccc3c(c2)CN(C2CCC(=O)NC2=O)C3=O)CC1 (stereo partly shown) [Compound I-72do]
Output: midrange

Input: Now consider O=C1CCC(N2Cc3cc(OC[C@@H]4CCCCN4C(=O)c4csc(N5CCOCC5)n4)ccc3C2=O)C(=O)N1 (stereo partly shown) [Compound I-72e] .
Output: bottom end

Input: Please do the same for O=C1CCC(N2Cc3cc(OC[C@H]4CCCCN4CC4COC4)ccc3C2=O)C(=O)N1 (stereo partly shown) as well.
Output: top end

Input: Note, next up: Cn1ccc(C(=O)N2CCCC[C@H]2COc2ccc3c(c2)CN(C2CCC(=O)NC2=O)C3=O)cc1=O (stereo partly shown) [Compound I-72ao]
Output: bottom end

Input: // repeat for O=C1CCC(N2Cc3cc(OC[C@@H]4CCCCN4C(=O)c4ccc5nccnc5c4)ccc3C2=O)C(=O)N1 (stereo partly shown) [Compound I-72hq] and report
Output: bottom end

Input: Param item: CN(C)c1ncc(CN2CCCC[C@@H]2COc2ccc3c(c2)CN(C2CCC(=O)NC2=O)C3=O)cn1 (stereo partly shown) [Compound I-50ar]
Output: top end

Input: Can you check O=C1CCC(N2Cc3cc(OC[C@H]4CCCCN4Cc4ccc(N5CCOCC5)cc4)ccc3C2=O)C(=O)N1 (stereo partly shown) [Compound I-50dx] next?
Output: top end

Input: Same read-out for Cc1nc(C(F)(F)F)ccc1C(=O)N1CCCC[C@H]1COc1ccc2c(c1)CN(C1CCC(=O)NC1=O)C2=O (stereo partly shown) [Compound I-72n] ?
Output: midrange

Input: Queued: O=C1CCC(N2Cc3cc(OC[C@H]4CCCCN4Cc4ccc5ccccc5n4)ccc3C2=O)C(=O)N1 (stereo partly shown)
Output: top end

Input: Try this compound too: CCN(CC)CC(=O)N1CCCC[C@H]1COc1ccc2c(c1)CN(C1CCC(=O)NC1=O)C2=O (stereo partly shown) [Compound I-72cp]
Output: bottom end
